# System: Mytilus galloprovincialis plantigrades
# assay_notes: Anti-settlement bioassay with mussel plantigrades (effectiveness and mortality)
# Format: in vivo
# study_conditions: mortality of plantigrades, 15 h, up to 500 μM; read-out: LC50, the median lethal dose

test_smiles | target_or_system | LC50 / µM
N#Cc1c(-c2ccc(Cl)cc2)[nH]c(C(F)(F)F)c1Br | Mytilus galloprovincialis plantigrades | 108

====

# assay_notes: Luminescent Vibrio fischeri ecotoxicity assay (ISO11348)
# Type: cell-based
# study_conditions: Vibrio fischeri; read-out: LC50 Vibrio fischeri
observable: CC50

molecule | meas_value
O=C(O)c1cc(OS(=O)(=O)O)c(OS(=O)(=O)O)c(OS(=O)(=O)O)c1 [Compound 12, gallic acid persulfate] | > 1000 µg/mL

====

# assay_notes: Anti-settlement bioassay with mussel plantigrades (effectiveness and mortality)
# Assay type: in vivo, Mytilus galloprovincialis
# study_conditions: Mytilus galloprovincialis, in vivo, other: immersion in test solution in filtered seawater; mortality of plantigrades, 15 h, up to 500 μM; read-out: LC50, the median lethal dose

compound | LC50 at 15 h
O=C(O)c1cc(OS(=O)(=O)O)c(OS(=O)(=O)O)c(OS(=O)(=O)O)c1 [Compound 12, gallic acid persulfate] | > 500 µM
